Biological target: T1, full length human OX40L expressed on CHO cells (human, UniProt P23510 1-183)
T1 sequence: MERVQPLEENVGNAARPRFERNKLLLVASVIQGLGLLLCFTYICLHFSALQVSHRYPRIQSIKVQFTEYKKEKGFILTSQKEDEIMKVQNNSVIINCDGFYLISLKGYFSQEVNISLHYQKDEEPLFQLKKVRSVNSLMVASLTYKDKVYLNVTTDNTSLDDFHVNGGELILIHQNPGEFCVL
Test: cell-based or functional assay
READOUT LABEL: IC50, IL4 production, T-cell activation assay, donor 4 (nM)
Expressed in nM, but write only the number.

Prompt line: // query IC50, IL4 production, T-cell activation assay, donor 4 value for entry OX40L01B11 (VHH, monovalent Nanobody from E. coli; not shown: C-terminal c-myc and His6 tag) VHH: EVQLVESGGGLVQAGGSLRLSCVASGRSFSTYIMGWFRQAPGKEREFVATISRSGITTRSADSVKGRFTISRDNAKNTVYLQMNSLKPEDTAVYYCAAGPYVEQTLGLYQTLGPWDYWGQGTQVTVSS
Response line: 220

Prompt line: Record request: IC50, IL4 production, T-cell activation assay, donor 4 value, item anti-OX40L benchmark Fab (Fab, V domains shown, papain digest of benchmark IgG; also called LC001 Fab) VH: EVQLLESGGGLVQPGGSLRLSCAASGFTFNSYAMSWVRQAPGKGLEWVSIISGSGGFTYYADSVKGRFTISRDNSRTTLYLQMNSLRAEDTAVYYCAKDRLVAPGTFDYWGQGALVTVSS VL: DIQMTQSPSSLSASVGDRVTITCRASQGISSWLAWYQQKPEKAPKSLIYAASSLQSGVPSRFSGSGSGTDFTLTISSLQPEDFATYYCQQYNSYPYTFGQGTKLEIKR
Response line: 85

Sourced from patent US20150218281A1
